Examples of compounds with documented inhibition follow.
assay.target: Phosphorylase b kinase gamma catalytic chain, skeletal muscle/heart isoform (Homo sapiens);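 note: values are averaged percent inhibition of PHKG1 kinase activity, from the GSK PKIS inhibitor-set screen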
assay.conditions: at 0.1 µM
Give the value, in units of %, as a plain number.

Answered examples (5):
Cc1ccc(C(=O)NC2CC2)cc1-c1ccc2[nH]ncc2c1: -0.37
C[C@@H](Oc1cc(-n2cnc3ccc(OCC4CCN(C)CC4)cc32)sc1C(N)=O)c1ccccc1C(F)(F)F: 1.57
COC(=O)Nc1nc2cc(Oc3ccc(NC(=O)Nc4cccc(Br)c4)cc3)ccc2[nH]1: 3.04
Nc1nccc(C#Cc2cncnc2Nc2ccc(OCc3cccc(F)c3)c(Cl)c2)n1: 6.86
CCCN1CCCC(c2ccc(Nc3nc(Nc4cc(F)ccc4C(N)=O)c4cc[nH]c4n3)c(OC)c2)C1 (stereo unspecified): 51.2

Kindly consider the entry below.
// inhibition lookup, key: N#Cc1cccc(Nc2nccc(-c3cnn4ncccc34)n2)c1 15.8

###

Examples of compounds with documented inhibition follow.
assay.target: Phosphatidylinositol 4-kinase beta (Homo sapiens) (UniProt Q9UBF8);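 note: values are mean percent inhibition of PI4K-beta activity, averaged over replicate measurements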
Sequence (Q9UBF8 2-816 limits assumed): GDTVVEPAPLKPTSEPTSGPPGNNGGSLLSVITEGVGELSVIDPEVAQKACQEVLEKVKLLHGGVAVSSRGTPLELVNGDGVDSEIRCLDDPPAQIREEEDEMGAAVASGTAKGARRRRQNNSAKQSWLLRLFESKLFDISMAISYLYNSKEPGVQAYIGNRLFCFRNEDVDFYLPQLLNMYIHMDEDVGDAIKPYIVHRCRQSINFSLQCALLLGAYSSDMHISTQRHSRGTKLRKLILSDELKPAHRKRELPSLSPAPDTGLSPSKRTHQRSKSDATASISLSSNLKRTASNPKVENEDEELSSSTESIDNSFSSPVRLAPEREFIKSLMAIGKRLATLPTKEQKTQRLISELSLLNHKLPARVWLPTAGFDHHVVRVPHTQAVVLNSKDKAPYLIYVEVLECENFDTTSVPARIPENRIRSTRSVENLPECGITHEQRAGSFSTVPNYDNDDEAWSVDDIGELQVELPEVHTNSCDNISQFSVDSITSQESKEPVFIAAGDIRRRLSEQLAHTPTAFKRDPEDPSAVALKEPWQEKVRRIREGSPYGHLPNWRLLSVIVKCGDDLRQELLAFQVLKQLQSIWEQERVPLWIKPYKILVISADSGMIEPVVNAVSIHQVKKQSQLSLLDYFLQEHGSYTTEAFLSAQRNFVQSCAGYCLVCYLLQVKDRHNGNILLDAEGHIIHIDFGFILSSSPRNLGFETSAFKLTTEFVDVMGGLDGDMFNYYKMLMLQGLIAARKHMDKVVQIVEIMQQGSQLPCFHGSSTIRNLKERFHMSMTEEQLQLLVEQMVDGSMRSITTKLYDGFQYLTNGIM
assay.conditions: at 1 µM
Give the value, in units of %, as a plain number.

Answered examples (4):
Nc1nccc(-c2c(-c3ccc(F)cc3)ncn2CCCN2CCOCC2)n1: -2.19
N#Cc1c(NC(=O)c2ccccc2F)sc2c1CCCC2: 2.03
CN(c1ccc(NC(=O)Nc2ccc(OC(F)(F)F)cc2)cc1)c1ccnc(Nc2cccc(S(N)(=O)=O)c2)n1: 3.37
CCn1c(-c2nonc2N)nc2ccc(F)cc21: 6.29

// inhibition lookup, key: Cc1ccc(NC(=O)CC2CC2)cc1-c1ccc(C(=O)NCC2CC2)cc1 -2.41

###

assay.target: Serine/threonine-protein kinase Nek2 (Homo sapiens) (UniProt P51955);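 note: mean inhibition value from the GSK PKIS kinase screening panel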
Sequence (whole entry): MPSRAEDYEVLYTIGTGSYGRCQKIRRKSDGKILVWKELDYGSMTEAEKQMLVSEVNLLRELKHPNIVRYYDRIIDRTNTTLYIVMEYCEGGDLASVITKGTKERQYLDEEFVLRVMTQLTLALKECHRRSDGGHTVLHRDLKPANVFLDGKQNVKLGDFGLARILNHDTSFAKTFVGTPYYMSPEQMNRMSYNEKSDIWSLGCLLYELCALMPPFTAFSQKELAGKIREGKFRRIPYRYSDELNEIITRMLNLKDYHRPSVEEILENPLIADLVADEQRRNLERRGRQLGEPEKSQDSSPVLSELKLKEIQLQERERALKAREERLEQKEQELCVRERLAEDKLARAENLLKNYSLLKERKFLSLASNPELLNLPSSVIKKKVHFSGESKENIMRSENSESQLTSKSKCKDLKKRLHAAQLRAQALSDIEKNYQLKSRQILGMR
assay.conditions: at 0.1 µM
quantity: inhibition (%)
Give the value, in units of %, as a plain number.

// inhibition lookup, key: Cc1cc(O)cc(C)c1/C=C/c1cncc(C(=O)N(C)C)c1 2.6

// inhibition lookup, key: c1ccc(Nc2ncc(-c3ccccc3)o2)cc1 5.93

// inhibition lookup, key: NC(=O)c1sc(-n2cnc3ccccc32)cc1OCc1ccccc1Br 4.32

// inhibition lookup, key: c1ccc(Cc2nc3ccc(Nc4ncnc5ccccc45)cc3[nH]2)cc1 4.56

// inhibition lookup, key: NS(=O)(=O)c1ccc(N/N=C2\C(=O)Nc3ccc(Cl)cc32)cc1 4.08

// inhibition lookup, key: CCOc1nccc2c1nc(-c1nonc1N)n2CC 3.98

// inhibition lookup, key: Oc1cccc(-c2nc(-c3ccccc3)[nH]c2-c2ccncc2)c1 3.98

// inhibition lookup, key: COc1cccc(-n2nc(C)c3c(N/N=C(\C)c4ccncc4)ncnc32)c1 1.96

// inhibition lookup, key: Cc1ccc2c(c1)/C(=N/Nc1ccc(S(N)(=O)=O)cc1)C(=O)N2 0.94

// inhibition lookup, key: COc1cc(Nc2nccc(-c3cnn4ncccc34)n2)cc(OC)c1 2.03

// inhibition lookup, key: Cc1ccc(Nc2ccnc(Nc3cccc(C(N)=O)c3)n2)cc1O 4

// inhibition lookup, key: O=S(=O)(CCOCc1ccc(-c2ccc3ncnc(Nc4ccc(OCc5cccc(F)c5)c(Cl)c4)c3c2)o1)c1ccccc1 3.36

###

Examples of molecules with documented inhibition follow.
assay.target: Dual specificity tyrosine-phosphorylation-regulated kinase 1A (Homo sapiens)
assay.conditions: at 0.1 µM
Description: GSK_PKIS: DYRK1A mean inhibition at 0.1 uM [Nanosyn]
Note: state the figure and append the unit.

Answered examples (6):
COC(=O)Nc1nc2cc(Oc3ccc(NC(=O)Nc4cccc(Br)c4)cc3)ccc2[nH]1: 1.12%
CS(=O)(=O)CCNCc1nc(-c2ccc3ncnc(Nc4ccc(OCc5cccc(C(F)(F)F)c5)cc4)c3c2)cs1: -1.28%
c1ccc(Nc2ncc(-c3ccccc3)o2)cc1: 3.02%
Nc1nccc(-c2c(-c3ccc(F)cc3)nn3cc(C(F)(F)F)ccc23)n1: 0.54%
Cc1cc(Cl)cc2c1NC(=O)C2=NNc1ccc(S(N)(=O)=O)cc1: 1.45%
Cc1ccc(C(=O)NC2CC2)cc1-c1ccc2[nH]ncc2c1: -1.4%

// inhibition lookup, key: Cc1ccc2c(-c3ccnc(Nc4ccc5c(c4)OCCO5)n3)c(-c3ccc(C(F)(F)F)cc3)nn2n1 0.1%

// inhibition lookup, key: O=C(Nc1ccc(Oc2ccc3[nH]c(NC(=O)c4ccco4)nc3c2)cc1)Nc1cc(C(F)(F)F)ccc1F -3.75%

###

assay.target: Calcium/calmodulin-dependent protein kinase type II subunit alpha (Homo sapiens) (UniProt Q9UQM7);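 note: reported value is a mean percent inhibition of CAMK2A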
Sequence (Q9UQM7 whole entry): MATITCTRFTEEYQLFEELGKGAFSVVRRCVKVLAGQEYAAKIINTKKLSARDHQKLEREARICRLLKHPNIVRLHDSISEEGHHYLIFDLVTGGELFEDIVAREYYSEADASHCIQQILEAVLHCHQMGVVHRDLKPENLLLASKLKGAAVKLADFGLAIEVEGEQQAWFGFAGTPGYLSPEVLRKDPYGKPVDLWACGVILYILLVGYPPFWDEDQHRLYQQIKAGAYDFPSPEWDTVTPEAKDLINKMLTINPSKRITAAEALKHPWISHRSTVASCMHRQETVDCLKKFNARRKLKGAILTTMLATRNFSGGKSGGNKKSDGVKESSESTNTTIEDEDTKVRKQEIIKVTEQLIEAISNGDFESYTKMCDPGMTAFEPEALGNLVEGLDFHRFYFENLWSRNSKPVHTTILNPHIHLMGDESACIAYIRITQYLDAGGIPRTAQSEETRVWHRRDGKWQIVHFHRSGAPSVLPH
assay.conditions: at 1 µM
Examples of molecules with documented inhibition follow.
Give the value, in units of %, as a plain number.

Answered examples (3):
Cc1ccc(O)cc1Nc1ccnc2ccc(S(C)(=O)=O)cc12: 6.06
c1ccc(Nc2ncc(-c3ccccc3)o2)cc1: 3.27
NS(=O)(=O)c1ccc(Nc2cc(-c3cccc(O)c3)n[nH]2)cc1: 5.49

// inhibition lookup, key: O=C(Nc1ccc(Oc2ccc3[nH]c(NC(=O)c4ccco4)nc3c2)cc1)Nc1cc(C(F)(F)F)ccc1F 2.09

###

Examples of compounds with documented inhibition follow.
assay.target: Dual specificity protein kinase CLK3 (Homo sapiens)
assay.conditions: at 0.1 µM
Description: GSK_PKIS: CLK3 mean inhibition at 0.1 uM [Nanosyn]
Give the value, in units of %, as a plain number.

Answered examples (3):
Nc1ccc(C#Cc2cncnc2Nc2ccc(OCc3cccc(F)c3)c(Cl)c2)cc1: 0.75
CN(C)c1cc2c(Nc3ccc4c(cnn4Cc4ccccc4)c3)ncnc2cn1: 0.92
COc1cc(/C=N/Nc2ncnc3c2cnn3C(C)C)ccc1O: 5.21

Provide value of inhibition for this record tested with Dual specificity protein kinase CLK3 (Homo sapiens): Cc1cc(Cl)cc2c1NC(=O)C2=NNc1ccc(S(N)(=O)=O)cc1 0.9

###

assay.target: Ribosomal protein S6 kinase alpha-3 (Homo sapiens) (UniProt P51812)
Sequence (P51812 whole entry): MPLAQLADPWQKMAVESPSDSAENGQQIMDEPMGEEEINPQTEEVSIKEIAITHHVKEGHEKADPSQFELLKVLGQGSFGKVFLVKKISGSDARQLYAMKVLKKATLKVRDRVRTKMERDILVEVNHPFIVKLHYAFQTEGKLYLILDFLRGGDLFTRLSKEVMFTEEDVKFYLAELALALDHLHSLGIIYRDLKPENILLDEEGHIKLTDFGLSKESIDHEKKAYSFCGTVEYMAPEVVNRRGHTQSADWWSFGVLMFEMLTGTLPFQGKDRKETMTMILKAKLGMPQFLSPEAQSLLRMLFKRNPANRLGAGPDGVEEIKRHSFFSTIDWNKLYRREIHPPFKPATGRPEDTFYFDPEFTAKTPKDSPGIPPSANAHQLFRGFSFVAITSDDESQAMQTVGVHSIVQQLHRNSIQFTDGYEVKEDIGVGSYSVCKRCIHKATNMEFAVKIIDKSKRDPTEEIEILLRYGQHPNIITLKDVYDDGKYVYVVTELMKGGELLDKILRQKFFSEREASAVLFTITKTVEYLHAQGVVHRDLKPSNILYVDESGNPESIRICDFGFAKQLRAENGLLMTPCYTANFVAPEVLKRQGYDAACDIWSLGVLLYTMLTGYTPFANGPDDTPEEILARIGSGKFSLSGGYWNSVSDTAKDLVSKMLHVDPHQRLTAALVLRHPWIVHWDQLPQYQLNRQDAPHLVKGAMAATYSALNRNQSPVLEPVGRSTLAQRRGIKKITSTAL
assay.conditions: at 1 µM
Description: GSK_PKIS: RSK2 mean inhibition at 1 uM [Nanosyn]
Examples of molecules with documented inhibition follow.
Give the value, in units of %, as a plain number.

// inhibition lookup, key: C[C@@H](Oc1cc(-n2cnc3ccc(OC[C@@H](O)CO)cc32)sc1C(N)=O)c1ccccc1Cl 5.89

// inhibition lookup, key: COc1cc2ncnc(Nc3ccc(C)c(O)c3)c2cc1OC 3.02

###

Examples of compounds with documented inhibition follow.
assay.target: NT-3 growth factor receptor (Homo sapiens) (UniProt Q16288);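 note: mean percent inhibition of TRKC, reported within the GSK PKIS dataset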
Sequence (Q16288 32-839 limits assumed): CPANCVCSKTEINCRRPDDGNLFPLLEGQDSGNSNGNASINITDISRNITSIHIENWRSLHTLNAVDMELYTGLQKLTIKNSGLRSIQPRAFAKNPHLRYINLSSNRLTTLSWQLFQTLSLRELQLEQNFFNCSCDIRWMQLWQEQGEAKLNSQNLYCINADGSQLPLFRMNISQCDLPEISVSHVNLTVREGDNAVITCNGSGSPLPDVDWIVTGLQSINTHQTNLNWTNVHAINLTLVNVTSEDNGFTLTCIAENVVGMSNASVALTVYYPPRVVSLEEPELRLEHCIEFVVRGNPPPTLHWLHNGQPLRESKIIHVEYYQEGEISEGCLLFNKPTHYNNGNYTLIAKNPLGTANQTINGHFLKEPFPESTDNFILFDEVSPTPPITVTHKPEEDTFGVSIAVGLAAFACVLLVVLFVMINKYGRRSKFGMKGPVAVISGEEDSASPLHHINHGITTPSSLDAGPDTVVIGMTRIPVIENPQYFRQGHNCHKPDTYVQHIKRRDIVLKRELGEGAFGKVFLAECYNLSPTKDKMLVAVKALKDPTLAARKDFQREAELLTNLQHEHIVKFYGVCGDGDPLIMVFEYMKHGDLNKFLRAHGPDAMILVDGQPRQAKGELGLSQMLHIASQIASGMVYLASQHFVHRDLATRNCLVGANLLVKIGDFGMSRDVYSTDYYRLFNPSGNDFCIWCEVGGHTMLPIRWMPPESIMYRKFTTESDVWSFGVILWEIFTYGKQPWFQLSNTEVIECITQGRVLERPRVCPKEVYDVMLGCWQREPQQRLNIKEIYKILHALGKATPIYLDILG
assay.conditions: at 0.1 µM
Give the value, in units of %, as a plain number.

Answered examples (2):
COc1ccc(-c2nn3ncccc3c2-c2ccnc(Nc3cccc(C(F)(F)F)c3)n2)cc1: 2.64
Cc1ccc(O)cc1Nc1ccnc2ccc(S(C)(=O)=O)cc12: 6.41

Provide value of inhibition for this record tested with NT-3 growth factor receptor (Homo sapiens) (UniProt Q16288): COc1cccc(-n2nc(C)c3c(N/N=C(\C)c4ccncc4)ncnc32)c1 -2.28

Provide value of inhibition for this record tested with NT-3 growth factor receptor (Homo sapiens) (UniProt Q16288): Cc1ccc(NC(=O)CC2CC2)cc1-c1ccc(C(=O)NCC2CC2)cc1 2.32

Provide value of inhibition for this record tested with NT-3 growth factor receptor (Homo sapiens) (UniProt Q16288): CCOc1nccc2c1nc(-c1nonc1N)n2CC 1.31

Provide value of inhibition for this record tested with NT-3 growth factor receptor (Homo sapiens) (UniProt Q16288): CCS(=O)(=O)c1ccc(OC)c(Nc2nccc(N(C)c3ccc4c(C)n[nH]c4c3)n2)c1 4.34

Provide value of inhibition for this record tested with NT-3 growth factor receptor (Homo sapiens) (UniProt Q16288): Cc1cc(Cl)cc2c1NC(=O)C2=NNc1ccc(S(N)(=O)=O)cc1 1.2

Provide value of inhibition for this record tested with NT-3 growth factor receptor (Homo sapiens) (UniProt Q16288): COc1ccc2ncnc(Nc3ccc(OCc4ccccc4)cc3)c2c1 -0.03

Provide value of inhibition for this record tested with NT-3 growth factor receptor (Homo sapiens) (UniProt Q16288): COC(=O)c1ccc2c(c1)C(=Cc1cc(Br)c(O)c(Br)c1)C(=O)N2 2.35

Provide value of inhibition for this record tested with NT-3 growth factor receptor (Homo sapiens) (UniProt Q16288): O=C(Nc1ccc(Oc2ccc3[nH]c(NC(=O)c4ccco4)nc3c2)cc1)Nc1cc(C(F)(F)F)ccc1F 30.8

Provide value of inhibition for this record tested with NT-3 growth factor receptor (Homo sapiens) (UniProt Q16288): Cc1ccc(Nc2ccnc(Nc3cccc(C(N)=O)c3)n2)cc1O 3.13

Provide value of inhibition for this record tested with NT-3 growth factor receptor (Homo sapiens) (UniProt Q16288): FC(F)(F)c1ccc(-c2nn3ncccc3c2-c2ccnc(Nc3ccc4c(c3)OCCO4)n2)cc1 1.88
